# System: MS2 coat protein
# assay overview: apparent KD of MS2 coat protein; designed switch direction (-1 OFF switch, 1 ON switch): -1; higher = weaker reporter binding
# condition details: Eterna round: R95; input ligand: none
measurement name: apparent KD of MS2 coat protein (nM)
I only need the number, in nM, no unit after it.

Recorded apparent KD of MS2 coat protein, per entry:
AGUACUAACACGAAAGUGUUAGUACUAUAAGCUUGUGAAACAUGAGGAUCACCCAUGUCCUCAUAAGCUCGUCUUAU [Mat - Sensor v3 - Turn-off var 2 - D102] (puzzle: Sensor v3, turn-off variant 2)    17
AGAAAUGCCCAUGGCCGCAAGCUUUUUGCUUGUCUUACCACAUGAGGAUCACCCAUGUGACAUGGGCUCCUGAUAAU [Bivequ] (puzzle: Sensor v3, turn-off variant 2)    12.1
CCAGGCGUCUUUGCUCGUCUUAUUUGGAGAGGACUGAUAACAUGAGGAUCACCCAUGUGUGUGGGAGCGUUGCAGUG [JR_SV3TOV2_Sub020] (puzzle: Sensor v3, turn-off variant 2)    116
UAAGUGUGAGGAUAUGGUAAAGAUAGAAUGAUGAAAGAACUCCAGAAGGCACAUGAGGAUCACCCAUGUAGAUG [Mat - Exclusion 4 - Mod of JL - D24] (puzzle: Exclusion 4)    31.9
UUCCUCGUUGUGAGGAUAUCGUCCGUGUUUUGUUACGAGAAGGCACAUGAGGAUCACCCAUGUUAUUUGAUUUU [JR_BMOE4_Sub074] (puzzle: Brourd's mod of Exclusion 4)    37.9
CUGAGCAGACGGAGAUCCAACAUGAGGAUCACCCAUGUCUCAAAAGCUUUUUGCUUGUCUUACCCUCCUCUGUUCUC [Isceeren] (puzzle: Sensor v3, turn-off variant 1)    15.7

Ask: Fill in the blank: the reported apparent KD of MS2 coat protein of AGACAGUCAGGAUAUACAUGAGGAUCACCCAUGUUGAGAAGAGAAAGGGCAGGAAGAGGUAGAAGGGACAAGAA [JR_Exclu3_Sub034] (puzzle: Exclusion 3) is ____.
Reply: 29.3

* * *

# Tested on: MS2 coat protein
# assay overview: apparent KD of MS2 coat protein; designed switch direction (-1 OFF switch, 1 ON switch): -1; higher = weaker reporter binding
# condition details: input ligand: microRNA oligo, concentration not stated
measurement name: apparent KD of MS2 coat protein
The answer consists of two parts: a number and, after it, its unit.

Recorded apparent KD of MS2 coat protein, per entry:
GUGCUAUAGGAAGGAUAUACUUCAUUAGACUAACAUGAGGAUCACCCAUGUAACCUUAUGUAUGUGUAGAAGGUCCAUAGCUUA (Eterna round: R96, puzzle: Exclusion NG 2)    13.3 nM
UUUAGUUCAGGAUAUGUAGAUUUUAACAUGAGGAUCACCCAUGUAGAUCCUGAAUUAACUACAGAAGGGAACAUUA [Exclusion 5: 2:d] (Eterna round: R96, puzzle: Exclusion 5)    20.3 nM

Ask: Fill in the blank: the reported apparent KD of MS2 coat protein of UCGUUCCGUGUAGGAUAUUGGCCUCCCUUGGGCCGAGAAGGACAUGAGGAUCACCCAUGUAUGUUAUUAUCGCGCGUGGCGCAU [Design 88] (Eterna round: R96, puzzle: Exclusion NG 1) is ____.
Reply: 13.8 nM

Ask: Fill in the blank: the reported apparent KD of MS2 coat protein of GCAGCAUAGAUGAAAAUCUGAUACAUGAGGAUCACCCAUGUUCAGGAUAUGGUCUGGAUUACAGGCCAGAAGGGAACAAGCUGC [Eli exng3 - 011] (Eterna round: R96, puzzle: Exclusion NG 3) is ____.
Reply: 10.3 nM

Ask: Fill in the blank: the reported apparent KD of MS2 coat protein of GCGGACUAGAUCGUGAGAUCAGAGACAUGAGGAUCACCCAUGUAGGAUAUCGAUUCGAAACGAAUCGAGAAGGGCAUAGUCCGC [JL denovo 7] (Eterna round: R96, puzzle: Exclusion NG 3) is ____.
Reply: 14.8 nM

Ask: Fill in the blank: the reported apparent KD of MS2 coat protein of ACAUGAGGAUCACCCAUGUCUGGCUGGUCCGUCUCGGCUGUCGAGGAUAUAGCUCGGUGUCCGCGCUAGAAGGCGGGAGCUGGC [Aenatbe mod 81] (Eterna round: R96, puzzle: Exclusion NG 3) is ____.
Reply: 52.2 nM
